- Target or system: Jak2 (UniProt O60674)
- Sequence (O60674 whole entry, looked up): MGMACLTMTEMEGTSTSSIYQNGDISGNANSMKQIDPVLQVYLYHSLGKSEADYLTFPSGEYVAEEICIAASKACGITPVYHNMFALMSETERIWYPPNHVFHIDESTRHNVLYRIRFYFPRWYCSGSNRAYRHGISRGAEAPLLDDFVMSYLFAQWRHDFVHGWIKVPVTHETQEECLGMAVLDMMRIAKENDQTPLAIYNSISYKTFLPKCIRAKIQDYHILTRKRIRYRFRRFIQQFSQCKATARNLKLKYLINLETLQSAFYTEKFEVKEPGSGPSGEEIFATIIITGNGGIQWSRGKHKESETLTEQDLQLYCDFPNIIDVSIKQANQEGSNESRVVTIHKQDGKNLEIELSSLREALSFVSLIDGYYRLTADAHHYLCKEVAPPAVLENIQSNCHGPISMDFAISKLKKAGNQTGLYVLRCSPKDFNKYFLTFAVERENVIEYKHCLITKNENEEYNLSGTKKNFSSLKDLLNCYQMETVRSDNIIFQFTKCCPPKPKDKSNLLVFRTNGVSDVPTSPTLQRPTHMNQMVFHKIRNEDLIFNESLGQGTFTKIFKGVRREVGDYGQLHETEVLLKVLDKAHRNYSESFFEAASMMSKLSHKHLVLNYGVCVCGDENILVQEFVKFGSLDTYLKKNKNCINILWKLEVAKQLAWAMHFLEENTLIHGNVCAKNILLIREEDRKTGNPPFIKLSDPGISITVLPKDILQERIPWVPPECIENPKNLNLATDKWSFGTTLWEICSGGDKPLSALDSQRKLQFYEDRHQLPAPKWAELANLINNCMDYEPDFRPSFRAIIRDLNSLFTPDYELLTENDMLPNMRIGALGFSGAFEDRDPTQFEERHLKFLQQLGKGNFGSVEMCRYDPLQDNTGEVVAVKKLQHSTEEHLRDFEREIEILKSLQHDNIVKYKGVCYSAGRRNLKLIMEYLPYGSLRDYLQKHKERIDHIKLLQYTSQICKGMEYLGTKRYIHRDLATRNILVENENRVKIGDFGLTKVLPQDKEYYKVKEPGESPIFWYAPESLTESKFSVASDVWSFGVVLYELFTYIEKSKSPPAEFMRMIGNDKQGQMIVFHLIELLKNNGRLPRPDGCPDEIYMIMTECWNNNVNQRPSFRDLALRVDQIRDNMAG
- Procedure text: phosphorylation enrichment, bacterial display (enrichment ratio); higher = better substrate or ligand; peptides without Tyr show the background;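 note: 11-residue human phosphosite peptides and single-mutation variants displayed on the E. coli surface, counted by deep sequencing, each peptide's frequency after selection divided by its frequency in the unselected input library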;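 note: frequency after pTyr selection over input frequency; kinase dosed for 20-30% of maximal phosphorylation in three min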
criterion met means recorded phosphorylation enrichment is 0.9 or above; criterion not met means it is below 0.9.

{"Sequence data": "SSPQPYLVPFL [TAF4_Y652]", "Target or system": "Jak2 (UniProt O60674)", "Assigned category": "criterion met"}
{"Sequence data": "SGPRHYTIAAL [TTR_Y125_R124H]", "Target or system": "Jak2 (UniProt O60674)", "Assigned category": "criterion not met"}
{"Sequence data": "RLLVVYSWTQR [HBB_Y36_P37S]", "Target or system": "Jak2 (UniProt O60674)", "Assigned category": "criterion met"}
{"Sequence data": "CGTPDNIAPEI [PRKCG_Y521_Y521N]", "Target or system": "Jak2 (UniProt O60674)", "Assigned category": "criterion met"}
{"Sequence data": "EPVSDYINADI [PTPN11_Y304_N308D]", "Target or system": "Jak2 (UniProt O60674)", "Assigned category": "criterion met"}
{"Sequence data": "EREFKYGAHKF [OAT_Y50_N54K_YF]", "Target or system": "Jak2 (UniProt O60674)", "Assigned category": "criterion not met"}
{"Sequence data": "CSEEMYRLMLQ [RET_Y981]", "Target or system": "Jak2 (UniProt O60674)", "Assigned category": "criterion met"}
{"Sequence data": "PELINYHQHFS [BTK_Y361_N365Y_YF]", "Target or system": "Jak2 (UniProt O60674)", "Assigned category": "criterion not met"}
{"Sequence data": "QGIIIYKAAFF [SLC25A4_Y187_R188K_YF]", "Target or system": "Jak2 (UniProt O60674)", "Assigned category": "criterion met"}
{"Sequence data": "THQNSYQPGRK [CEFIP_Y210]", "Target or system": "Jak2 (UniProt O60674)", "Assigned category": "criterion not met"}
{"Sequence data": "EILLSYPRTGY [TGM1_Y365_L366P]", "Target or system": "Jak2 (UniProt O60674)", "Assigned category": "criterion not met"}
{"Sequence data": "EKNANYKEGTF [CLRN1_Y171_I168N_YF]", "Target or system": "Jak2 (UniProt O60674)", "Assigned category": "criterion not met"}
{"Sequence data": "KILGRYYETSS [PAX2_Y72_G76S]", "Target or system": "Jak2 (UniProt O60674)", "Assigned category": "criterion not met"}

----------
phosphorylation enrichment listing for selected sequences.
- Test system: AncSZ
- Procedure text: phosphorylation enrichment, bacterial display (enrichment ratio); higher = better substrate or ligand; peptides without Tyr show the background
Recorded metric: phosphorylation enrichment

{"Sequence data": "SAVTGYRVNVI [FN1_Y937_D940N]", "Recorded metric": "phosphorylation enrichment", "Measured result": 0.633}
{"Sequence data": "EQKKFYNAVKK [SCN5A_Y1495_M1498V_YF]", "Recorded metric": "phosphorylation enrichment", "Measured result": 0.499}
{"Sequence data": "PLTKVYVVEGS [ZMPSTE24_Y253]", "Recorded metric": "phosphorylation enrichment", "Measured result": 0.814}
{"Sequence data": "GARGRYIMGGP [TNK1_Y277_V278I]", "Recorded metric": "phosphorylation enrichment", "Measured result": 0.433}
{"Sequence data": "MCDKEYYSVHN [MET_Y1234_Y1230C]", "Recorded metric": "phosphorylation enrichment", "Measured result": 1.79}
{"Sequence data": "KMKGDYYRYLA [YWHAG_Y130]", "Recorded metric": "phosphorylation enrichment", "Measured result": 0.647}
{"Sequence data": "PLFRKYWPNHI [GREB1L_Y1560_YF]", "Recorded metric": "phosphorylation enrichment", "Measured result": 1.17}
{"Sequence data": "CPYNLYAEQFS [HGD_Y40_L44F]", "Recorded metric": "phosphorylation enrichment", "Measured result": 1.46}
{"Sequence data": "NKKYHYRELPV [ERN2_Y860_H858Y]", "Recorded metric": "phosphorylation enrichment", "Measured result": 0.456}
{"Sequence data": "VTRDEYPSNPM [CEMIP2_Y1015_I1010V]", "Recorded metric": "phosphorylation enrichment", "Measured result": 0.6}
{"Sequence data": "KQFWRYFPGNL [SLC25A4_Y112_A114P]", "Recorded metric": "phosphorylation enrichment", "Measured result": 0.904}
{"Sequence data": "CGTPDNIAPEI [PRKCG_Y521_Y521N]", "Recorded metric": "phosphorylation enrichment", "Measured result": 1.17}
{"Sequence data": "ARLEYCENEKK [IRS1_Y47_Y47C]", "Recorded metric": "phosphorylation enrichment", "Measured result": 0.795}

Sourced from the supplement of paper PMC10065799
